Record set: pIC50 | Lysine-specific demethylase 4C (Homo sapiens, UniProt Q9H3R0) | literature, multiple sources.
pIC50: −log10 of the molar value.

INSERT INTO assay_data (compound, meas_value) VALUES
  ('CCn1cc(Oc2nc(O)c3ccncc3n2)cn1', '≥ 7.00'),
  ('CCc1ccc(N(C)c2ccc(Oc3nc(O)c4ccncc4n3)cc2C)cc1', '≥ 7.00'),
  ('Cc1ccc2c(c1)CCN2c1ccc(Oc2nc(O)c3ccncc3n2)cc1', '≥ 7.00'),
  ('O=C(O)c1ccnc(-c2cn(CCN(Cc3ccc(Cl)c(Cl)c3)C3CC3)cn2)c1', '6.00 to 7.00'),
  ('CCc1ccc(COc2ccnn2-c2cc(C(=O)O)ccn2)cc1F', '6.00 to 7.00');

Return pIC50 measured with Lysine-specific demethylase 4C (Homo sapiens, UniProt Q9H3R0) given this compound: "O=C(O)c1ccnc(-n2nccc2OCc2ccc(Cl)cc2OCc2ccccc2)c1"
6.00 to 7.00

And the next one, "Cn1cnc(-c2cc(C(=O)O)ccn2)c1-c1cccc(F)c1" ?
6.00 to 7.00

And the next one, "Cn1cnc(-c2nccc3c(O)nc(Oc4ccc5cnn(C)c5c4)nc23)c1" ?
6.00 to 7.00

And the next one, CC(CO)COc1nc(O)c2ccncc2n1 (stereo not drawn) ?
6.00 to 7.00

And the next one, "O=C(C1CCNCC1)N1CC[C@H](n2cc(Oc3nc(O)c4ccncc4n3)cn2)C1" ?
≥ 7.00

---

Record set: pIC50 | Lysine-specific demethylase 4C (Homo sapiens) | literature, multiple sources.
pIC50: −log10 of the molar value.

Previously resolved entries follow.
INSERT INTO measurements (compound, meas_value) VALUES
  ('Oc1nc(OCC2CCCO2)nc2cnccc12 (centres unmarked)', '6.00 to 7.00'),
  ('Oc1nc(Oc2ccc3c(c2)CCCN3c2ccccc2)nc2cnccc12', '5.00 to 6.00'),
  ('CC(CC#N)c1ccc(N(C)c2ccc(Oc3nc(O)c4ccncc4n3)cc2)cc1 (centres unmarked)', '6.00 to 7.00'),
  ('N#Cc1ccc(CNc2cnccc2C(=O)O)cc1', '≥ 7.00'),
  ('Cc1ccc(COc2ccnn2-c2cc(C(=O)O)ccn2)cc1F', '> 7.00'),
  ('CCc1ccc(N(C)c2ccc(Oc3nc(O)c4ccncc4n3)cc2)cc1OCCN(C)C', '≥ 7.00'),
  ('Cc1ccccc1-c1ccc2c(c1)OCC[C@@H]2CNc1cnccc1C(=O)O', '5.00 to 6.00'),
  ('O=C(O)c1ccnc(-n2nccc2-c2cccc(O)c2)c1', '6.00 to 7.00');

Would you kindly share the measured pIC50 for "Oc1nc(Oc2cnn(Cc3ccccc3Cl)c2)nc2cnccc12" ?
≥ 7.00

And the next one, CC(Oc1ccnn1-c1cc(C(=O)O)ccn1)c1ccc(F)cc1 (centres unmarked) ?
6.00 to 7.00

And the next one, "CN1CCC(Cn2cnc(-c3cc(C(=O)O)ccn3)c2)CC1" ?
≥ 7.00

And the next one, "CCS(=O)(=O)N1CCC[C@@H](n2cc(Oc3nc(O)c4ccncc4n3)cn2)C1" ?
≥ 7.00

---

Record set: IC50 | Lysine-specific demethylase 4C (Homo sapiens) | literature, multiple sources.

INSERT INTO results (compound, meas_value) VALUES
  ('CCOc1ccc(-c2c(-c3cc(C(=O)O)ccn3)ncn2C)cc1', '1 to 10 µM'),
  ('CCCOc1ccc(N(C)c2ccc3c(c2)OCC[C@H]3CNc2cnccc2C(=O)O)cc1', '0.1 to 1 µM'),
  ('O=C(O)c1ccncc1NCC1CCCc2ccc(-c3ccccc3)cc21 (centres unmarked)', '0.1 to 1 µM'),
  ('O=C(C1CC1)N1CC[C@@H](n2cc(Oc3nc(O)c4ccncc4n3)cn2)C1', '≤ 0.1 µM'),
  ('CN(c1ccc(Oc2nc(O)c3ccncc3n2)cc1)c1ccc(C(C)(C)C)cc1', '0.1 to 1 µM'),
  ('CN(c1ccc(F)cc1)c1ccc2c(c1)OCC[C@H]2CNc1cnccc1C(=O)O', '0.1 to 1 µM');

Would you kindly share the measured IC50 for "O=C(O)c1ccnc(-n2nccc2-c2ccc(Br)cc2)c1" ?
1 to 10 µM

And the next one, CCC(c1ccccc1)n1cnc(-c2cc(-c3nn[nH]n3)ccn2)c1 (centres unmarked) ?
1 to 10 µM

---

pIC50: −log10 of the molar value.
Record set: pIC50 | Lysine-specific demethylase 4C (Homo sapiens) | literature, multiple sources.

Previously resolved entries follow.
INSERT INTO results (compound, measurement_target, meas_value) VALUES
  ('COc1ccccc1CNCCn1cnc(-c2cc(C(=O)O)ccn2)c1', 'Lysine-specific demethylase 4C (Homo sapiens)', '≥ 7.00'),
  ('CC(COc1nc(O)c2ccncc2n1)c1ccccc1 (stereo not drawn)', 'Lysine-specific demethylase 4C (Homo sapiens)', '6.00 to 7.00'),
  ('CC(Cn1cnc(-c2cc(C(=O)O)ccn2)c1)N1CCCC1 (stereo not drawn)', 'Lysine-specific demethylase 4C (Homo sapiens)', '≥ 7.00');

Return pIC50 measured with Lysine-specific demethylase 4C (Homo sapiens) given this compound: "Oc1nc(Oc2ccc(Cl)c(Cl)c2)nc2cnccc12"
≥ 7.00

And the next one, "Cn1cnc(-c2cc(-c3nn[nH]n3)ccn2)c1-c1ccc(Cl)c(OCc2ccccc2)c1" ?
5.00 to 6.00

And the next one, "O=C(O)c1ccnc(-c2cn(CCN3Cc4ccc(F)cc4C3)cn2)c1" ?
≥ 7.00

And the next one, "O=C(O)c1ccncc1NC[C@H]1CCCc2cc(Sc3ccc(F)cc3)ccc21" ?
5.00 to 6.00

And the next one, "Cn1cnc(-c2cc(C(=O)O)ccn2)c1-c1ccc(F)cc1" ?
6.00 to 7.00

And the next one, "Cc1sccc1-c1ccc2c(c1)OCC[C@H]2CNc1cnccc1C(=O)O" ?
5.00 to 6.00

And the next one, "CN(c1ccc(OC(F)(F)F)cc1)c1ccc2c(c1)CCC[C@H]2CNc1cnccc1C(=O)O" ?
6.00 to 7.00

And the next one, CC(Cc1ccccc1)Oc1nc(O)c2ccncc2n1 (stereo not drawn) ?
5.00 to 6.00

And the next one, "Cc1cccc(S(=O)(=O)c2ccc3c(c2)CCC[C@H]3CNc2cnccc2C(=O)O)c1" ?
6.00 to 7.00

---

Record set: IC50 | Lysine-specific demethylase 4C (Homo sapiens, UniProt Q9H3R0) | literature, multiple sources.

Return IC50 measured with Lysine-specific demethylase 4C (Homo sapiens, UniProt Q9H3R0) given this molecule: "Cc1cc(Cl)ccc1CNc1cnccc1C(=O)O"
≤ 0.1 µM

And the next one, O=C(O)c1ccncc1NCC1CCCc2c(F)cccc21 (stereo not shown) ?
0.1 to 1 µM

And the next one, Oc1nc(OCC2COc3ccccc32)nc2cnccc12 (stereo not shown) ?
1 to 10 µM

And the next one, "CS(=O)(=O)c1ccc(-c2ccnn2-c2cc(C(=O)O)ccn2)cc1" ?
1 to 10 µM

---

Record set: IC50 | Lysine-specific demethylase 4C (Homo sapiens, UniProt Q9H3R0) | literature, multiple sources.

INSERT INTO assay_data (mol, meas_value) VALUES
  ('Cn1cnc(-c2nccc3c(O)nc(OCCCC(F)(F)F)nc23)c1', '100 to 1000 nM'),
  ('O=C(O)c1ccnc(-n2nccc2OCc2ccccc2)c1', '< 100 nM');

Would you kindly share the measured IC50 for "Oc1nc(Oc2ccc3c(ccn3CCc3ccccc3)c2)nc2cnccc12" ?
100 to 1000 nM

---

Record set: IC50 | Lysine-specific demethylase 4C (Homo sapiens) | literature, multiple sources.

Previously resolved entries follow.
INSERT INTO measurements (compound, meas_value) VALUES
  ('O=C(O)c1ccncc1NC[C@H]1CCOc2cc(-c3ccsc3)ccc21', '1000 to 10000 nM'),
  ('CCS(=O)(=O)N1CCC[C@H](n2cc(Oc3nc(O)c4ccncc4n3)cn2)C1', '≤ 100 nM'),
  ('C[C@@H](c1ccccc1)n1cc(Oc2nc(O)c3ccncc3n2)cn1', '≤ 100 nM'),
  ('CN(C)CCCn1cnc(-c2cc(C(=O)O)ccn2)c1', '≤ 100 nM'),
  ('Oc1nc(Oc2ccc3c(ccn3-c3ccccc3)c2)nc2cnccc12', '1000 to 10000 nM');

Would you kindly share the measured IC50 for "Cc1cc(O)n(-c2cc(C(=O)O)ccn2)n1" ?
100 to 1000 nM

And the next one, "Cc1ccccc1Sc1ccc2c(c1)CCC[C@@H]2CNc1cnccc1C(=O)O" ?
1000 to 10000 nM

---

Record set: pIC50 | UniProtKB Q9H3R0 | literature, multiple sources.
pIC50: −log10 of the molar value.

Previously resolved entries follow.
INSERT INTO results (compound, meas_value) VALUES
  ('CN1CCOC(CCn2nc(Nc3cnccc3C(=O)O)c3cc(F)ccc32)C1 (stereo not drawn)', '> 7.00'),
  ('COCCn1ncc2ccc(Oc3nc(O)c4ccncc4n3)cc21', '6.00 to 7.00');

With those in mind, consider the next compound.
Would you kindly share the measured pIC50 for "O=C(O)c1ccnc(-c2cn(CCc3ccccc3Cl)cn2)c1" ?
6.00 to 7.00
